experimental.system: Substance-P receptor (Homo sapiens, UniProt P25103)
Sequence (P25103 whole entry): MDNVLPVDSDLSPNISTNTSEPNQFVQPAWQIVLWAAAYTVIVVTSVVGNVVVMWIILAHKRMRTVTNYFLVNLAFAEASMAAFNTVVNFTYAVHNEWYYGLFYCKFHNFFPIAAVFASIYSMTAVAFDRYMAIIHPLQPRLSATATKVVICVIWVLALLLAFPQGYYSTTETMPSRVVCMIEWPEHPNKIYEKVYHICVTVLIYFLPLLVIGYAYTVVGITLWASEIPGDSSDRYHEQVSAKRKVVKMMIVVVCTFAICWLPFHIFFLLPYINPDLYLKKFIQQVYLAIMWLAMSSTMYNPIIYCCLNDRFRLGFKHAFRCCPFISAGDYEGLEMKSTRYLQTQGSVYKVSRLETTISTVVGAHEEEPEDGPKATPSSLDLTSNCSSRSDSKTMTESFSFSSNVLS
assay.info: Displacement of [125]Substance P Binding from human Neurokinin NK1 receptor in CHO Cells
Each entry below lists one item and its recorded IC50 value.
# output: bare number, implied unit nM

Record excerpt, results attached:
| compound.smiles | observation.type | measured.result |
| --- | --- | --- |
| Cc1ccc(C)c(CO[C@H]2C3CCN(CC3)[C@H]2C(c2ccccc2)c2ccccc2)c1 | IC50 | 48 |
| Cc1ccc(CO[C@H]2C3CCN(CC3)[C@H]2C(c2ccccc2)c2ccccc2)cc1 | IC50 | 290 |
| Cc1cccc(CO[C@H]2C3CCN(CC3)[C@H]2C(c2ccccc2)c2ccccc2)c1 | IC50 | 21 |
| c1ccc(CN[C@H]2C3CCN(CC3)[C@H]2C(c2ccccc2)c2ccccc2)cc1 | IC50 | 150 |

[in] Using Substance-P receptor (Homo sapiens, UniProt P25103) as the test system, report measured IC50 of c1ccc(CCN[C@H]2C3CCN(CC3)[C@H]2C(c2ccccc2)c2ccccc2)cc1 .
[out] 700

[in] Using Substance-P receptor (Homo sapiens, UniProt P25103) as the test system, report measured IC50 of c1ccc(CO[C@H]2C3CCN(CC3)[C@H]2C(c2ccccc2)c2ccccc2)cc1 .
[out] 110000

[in] Using Substance-P receptor (Homo sapiens, UniProt P25103) as the test system, report measured IC50 of Cc1cc(C)cc(CO[C@H]2C3CCN(CC3)[C@H]2C(c2ccccc2)c2ccccc2)c1 .
[out] 1

[in] Using Substance-P receptor (Homo sapiens, UniProt P25103) as the test system, report measured IC50 of Cc1ccccc1CO[C@H]1C2CCN(CC2)[C@H]1C(c1ccccc1)c1ccccc1 .
[out] 183

[in] Using Substance-P receptor (Homo sapiens, UniProt P25103) as the test system, report measured IC50 of Cc1ccc(CO[C@H]2C3CCN(CC3)[C@H]2C(c2ccccc2)c2ccccc2)cc1C .
[out] 197
